# log10 of IC50 values compiled below
Target: Glycogen synthase kinase-3 (Sus scrofa, UniProt B2LUN4+I6LNT8)
Assay: Inhibition of pig brain GSK3alpha/beta
Measured Property: log10 of IC50 (log10 of the value in µM)

>  <Smiles Input>
CC[C@H](CO)Nc1nc(Nc2cccc(-c3cccnc3)c2)c2ncn(C(C)C)c2n1

>  <Endpoint Value>
1.78

$$$$
>  <Smiles Input>
CC[C@H](CO)Nc1nc(Nc2cccc(-c3ccccn3)c2)c2ncn(C(C)C)c2n1

>  <Endpoint Value>
0.61

$$$$
>  <Smiles Input>
CC(C)[C@H](CO)Nc1nc(Nc2ccc(-c3ccccn3)cc2)c2ncn(C(C)C)c2n1

>  <Endpoint Value>
1.95

$$$$
>  <Smiles Input>
CC(C)n1cnc2c(Nc3ccc(-c4ccccc4)cc3)nc(NC(C)(C)CO)nc21

>  <Endpoint Value>
1.70

$$$$
>  <Smiles Input>
CC[C@H](CO)Nc1nc(Nc2ccc(-c3ccncc3)cc2)c2ncn(C(C)C)c2n1

>  <Endpoint Value>
0.28

$$$$
>  <Smiles Input>
CC(C)n1cnc2c(Nc3cccc(-c4ccccn4)c3)nc(NC(C)(C)CO)nc21

>  <Endpoint Value>
0.69

$$$$
>  <Smiles Input>
CC[C@H](CO)Nc1nc(Nc2ccc(-c3cccnc3)cc2)c2ncn(C(C)C)c2n1

>  <Endpoint Value>
0.88

$$$$
>  <Smiles Input>
CC(C)[C@H](CO)Nc1nc(Nc2ccc(-c3cccnc3)cc2)c2ncn(C(C)C)c2n1

>  <Endpoint Value>
0.90

$$$$
>  <Smiles Input>
CC[C@H](CO)Nc1nc(Nc2ccc(-c3ccccn3)cc2)c2ncn(C(C)C)c2n1

>  <Endpoint Value>
1.60

$$$$
>  <Smiles Input>
CC[C@H](CO)Nc1nc(NCc2ccc(-c3ccccn3)cc2)c2ncn(C(C)C)c2n1

>  <Endpoint Value>
1.08

$$$$
>  <Smiles Input>
CC(C)[C@H](CO)Nc1nc(Nc2ccc(-c3ccccc3)cc2)c2ncn(C(C)C)c2n1

>  <Endpoint Value>
1.95

$$$$
>  <Smiles Input>
CC[C@H](CO)Nc1nc(NCc2ccc(-c3cccnc3)cc2)c2ncn(C(C)C)c2n1

>  <Endpoint Value>
1.92

$$$$
>  <Smiles Input>
CC[C@H](CO)Nc1nc(NCc2ccccn2)c2ncn(C(C)C)c2n1

>  <Endpoint Value>
1.16

$$$$
>  <Smiles Input>
CC[C@H](CO)Nc1nc(NCc2cccc(-c3ccncc3)c2)c2ncn(C(C)C)c2n1

>  <Endpoint Value>
1.76

$$$$
>  <Smiles Input>
CC(C)[C@H](CO)Nc1nc(Nc2cccc(-c3cccnc3)c2)c2ncn(C(C)C)c2n1

>  <Endpoint Value>
1.11

$$$$
>  <Smiles Input>
CC[C@H](CO)Nc1nc(NCc2ccc(-c3ccncc3)cc2)c2ncn(C(C)C)c2n1

>  <Endpoint Value>
1.55

$$$$
>  <Smiles Input>
CC(C)[C@H](CO)Nc1nc(NCc2ccc(-c3cccnc3)cc2)c2ncn(C(C)C)c2n1

>  <Endpoint Value>
0.78

$$$$
>  <Smiles Input>
CC(C)n1cnc2c(NCc3ccc(-c4ccccn4)cc3)nc(NC(C)(C)CO)nc21

>  <Endpoint Value>
1.20

$$$$
>  <Smiles Input>
CC[C@H](CO)Nc1nc(NCc2cccc(-c3ccccn3)c2)c2ncn(C(C)C)c2n1

>  <Endpoint Value>
0.52

$$$$
>  <Smiles Input>
CC(C)[C@H](CO)Nc1nc(Nc2ccc(-c3ccncc3)cc2)c2ncn(C(C)C)c2n1

>  <Endpoint Value>
1.08

$$$$
>  <Smiles Input>
CC[C@H](CO)Nc1nc(Nc2cccc(-c3ccncc3)c2)c2ncn(C(C)C)c2n1

>  <Endpoint Value>
1.30

$$$$
>  <Smiles Input>
CC(C)[C@H](CO)Nc1nc(NCc2ccc(-c3ccccn3)cc2)c2ncn(C(C)C)c2n1

>  <Endpoint Value>
1.00

$$$$
>  <Smiles Input>
CC(C)[C@H](CO)Nc1nc(Nc2cccc(-c3ccccn3)c2)c2ncn(C(C)C)c2n1

>  <Endpoint Value>
0.71

$$$$
